Data provenance is ChEMBL document CHEMBL4270630.

Tested on: H3N2 subtype
Experimental Protocol: Antiviral activity against Influenza A virus A/HK/7/87(H3N2) infected in MDCK cells assessed as reduction in virus-induced cytopathic effect after 3 days by microscopic method
Assay type: functional, organism-based
Experimental Setup: A/Hong Kong/7/1987(H3N2), 72 h
Attribute Measured: EC50 (µM)

{"columns": ["Molecule", "Data Value"],
 "data": [
  ["CC(=O)N[C@H]1[C@H](O[C@@H]2c3ccc(c(Cl)c3)Oc3cc4cc(c3O)Oc3ccc(cc3Cl)C[C@H]3NC(=O)[C@H](n5cc(COc6ccccc6)nn5)c5ccc(O)c(c5)Oc5cc(O)cc(c5)[C@H](NC3=O)C(=O)N[C@H]4C(O)N[C@H]3C(=O)N[C@H]2C(=O)N[C@@H](C(=O)O)c2cc(O)cc(O)c2-c2cc3ccc2O)O[C@H](CO)[C@@H](O)[C@@H]1O (stereo partly specified)", 11]
]}
